# IC50 values compiled below
molecular target: Hypoxia-inducible factor 1-alpha (Homo sapiens) (UniProt Q16665); experiment: HIF-2a and HIF-1a reporter inhibition panel, dose response, selectivity assay for HIF-2a inhibitor project, cell-based, luminescence (AID 651581); conditions: HIF-1a, run 2
Sequence (Q16665 whole entry, looked up): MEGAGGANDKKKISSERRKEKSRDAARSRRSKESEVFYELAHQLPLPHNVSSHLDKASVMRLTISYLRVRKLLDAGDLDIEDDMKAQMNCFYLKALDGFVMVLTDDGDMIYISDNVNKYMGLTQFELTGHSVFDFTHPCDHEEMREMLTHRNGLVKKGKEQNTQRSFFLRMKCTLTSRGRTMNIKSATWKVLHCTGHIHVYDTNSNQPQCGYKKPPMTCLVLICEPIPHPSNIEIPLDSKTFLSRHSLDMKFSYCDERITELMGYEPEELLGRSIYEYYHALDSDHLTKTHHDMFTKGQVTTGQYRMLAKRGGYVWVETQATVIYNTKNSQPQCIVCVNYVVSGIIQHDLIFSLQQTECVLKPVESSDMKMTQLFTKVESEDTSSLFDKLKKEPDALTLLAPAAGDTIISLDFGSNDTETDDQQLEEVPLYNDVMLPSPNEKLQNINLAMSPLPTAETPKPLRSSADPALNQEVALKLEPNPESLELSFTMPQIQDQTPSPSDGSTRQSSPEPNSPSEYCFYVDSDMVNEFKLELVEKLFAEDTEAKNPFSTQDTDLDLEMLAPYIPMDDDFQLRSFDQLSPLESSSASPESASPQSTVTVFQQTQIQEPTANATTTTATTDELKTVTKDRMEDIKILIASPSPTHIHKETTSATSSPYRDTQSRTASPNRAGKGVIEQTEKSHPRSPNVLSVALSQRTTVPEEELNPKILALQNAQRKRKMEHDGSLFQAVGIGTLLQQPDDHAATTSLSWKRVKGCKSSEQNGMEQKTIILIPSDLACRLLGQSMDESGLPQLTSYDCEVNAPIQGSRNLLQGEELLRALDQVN
Measured Metric: IC50

| Molecule | Val |
| --- | --- |
| CC(C)c1ccc(/C=N/Nc2ccc(C(=O)O)cc2)cc1 | 21.7 µM |
| Cc1c(CCC(=O)O)c(=O)oc2cc3oc4c(c3cc12)CCCC4 | 1.08 µM |
| Cc1cc(C(=O)Nc2cccc(C(=O)O)c2)oc1C | > 99 µM |
| CCOc1ccc(C(=O)Nc2nnc(SCC(=O)NCC3CCCO3)s2)cc1 (configuration not stated) | > 99 µM |
| C/C(=N/NC(=O)c1cc(C2CC2)[nH]n1)c1cccs1 | 21.7 µM |
| Cc1ccc(S(=O)(=O)Nc2cccc3cccnc23)c([N+](=O)[O-])c1 | > 99 µM |
| COc1cccc(/C=N/Nc2ncccc2[N+](=O)[O-])c1OC | 20.1 µM |
| O=c1[nH]c2ccc(Br)cc2c(=O)o1 | 20 µM |
| N=c1nc(SCCC(=O)O)ss1 | 14.4 µM |
| CCOC(=O)C1CCN(C(=O)CCc2c(C)nc3cc(-c4ccccc4)nn3c2C)CC1 | 6.98 µM |
| CCOc1ccc(C(=O)Nc2cccc(C(=O)O)c2C)cc1Cl | > 99 µM |
| O=C(NCc1ccccc1)C(=O)Nc1cccc(C(=O)O)c1 | > 99 µM |
| CCOc1ccc(OCc2cccc(C(=O)N/N=C/c3cccnc3)c2)cc1 | > 99 µM |
| COc1ccc(CNC(=O)CCc2c(C)nc3cc(-c4ccccc4OC)nn3c2C)cc1 | 6.7 µM |
| COCCn1c(C)cc(C(=O)CSc2nnc3ccccn23)c1C | 26.2 µM |
| CCN(CC)CCCC(C)n1c2nc(=O)[nH]c(=O)c-2nc2cc(Cl)ccc21 (configuration not stated) | 15.8 µM |
| O=C(O)COc1ccc2oc3ccccc3c2c1 | 59 µM |
| Cc1c(CCC(=O)N2CCC[C@H]2C(=O)O)c(=O)oc2c(C)c3oc4c(c3cc12)CCCC4 | 17 µM |
| CCOc1ccc(-c2cc(CCCC(=O)Nc3cc(OC)ccc3OC)no2)cc1 | 5.07 µM |
| C=C1C(=O)OC2CC3(C)OC3C3OC3C3=CC(OC3=O)C12 (configuration not stated) | 38.9 µM |
| CC(=O)Nc1ccc(NC(=O)c2oc3cc(C)c(C)cc3c2C)cc1 | 1.65 µM |
| Cc1nc(SCc2cccc(C(=O)O)c2)nc2c1CCCC2 | 17 µM |
| O=C(CSc1nnc(-c2ccc(Br)cc2)o1)Nc1cccc(C(=O)O)c1 | > 99 µM |
| O=C(Nc1ccc(NC(=O)c2cccs2)cc1)c1ccc2c(c1)OCCO2 | > 99 µM |
| C/C(=N\OCc1cccc(C(=O)O)c1)c1ccc(Cl)cc1 | > 99 µM |
| O=C(O)c1cccc(NC(=S)NC(=O)c2ccc3ccccc3c2)c1 | > 99 µM |
| O=Cc1cn(Cc2cccc([N+](=O)[O-])c2)c2ccccc12 | > 99 µM |
| Cc1cc(NC(=O)c2ccccc2)c(Cl)cc1N | 12.9 µM |
| Cc1ccc(/C=N/Nc2cccc(C(=O)O)c2)s1 | > 99 µM |
| Cc1ccc(C(C)C)c(OCc2ccc(C(=O)N/N=C/c3ccc(C(=O)O)cc3)cc2)c1 | > 99 µM |
| O=Nc1c(O)ccc2cc(S(=O)(=O)O)ccc12 | > 99 µM |
| C/C(=N\NC(=O)c1n[nH]c2c1CCC2)c1cccs1 | 11.6 µM |
| COC(=O)c1cccc(-c2noc(-c3ccccc3F)n2)c1 | > 99 µM |
| O=[N+]([O-])C1C(c2ccccc2)C12c1ccccc1-c1ccccc12 (configuration not stated) | 40.3 µM |
| O=C(Nc1ccc(N2CCOCC2)cc1)c1cnccn1 | 21.4 µM |
| O=C(O)c1cc(N/N=C/c2ccc3c(c2)OCCO3)ccc1Cl | > 99 µM |
| COC(=O)COc1ccc(-c2nccc(-c3ccccn3)n2)cc1 | 0.637 µM |
| COC(=O)Cc1ccc(NC(=O)c2ccc(C(C)(C)C)cc2)cc1 | < 10 µM |
| CCOc1ccc(OCc2cccc(C(=O)N3CCOCC3)c2)cc1 | > 99 µM |
| CN(C)c1ccc(Nc2nc(N)c3ccccc3n2)cc1 | < 30 µM |
| Cc1ccc(C(C)C)c(OCc2ccc(-c3nnco3)cc2)c1 | > 99 µM |
| CC(=O)N/N=C\c1cccc(OC/C=C/c2ccccc2)c1 | > 99 µM |
| COc1ccc(OCc2cccc(C(=O)O)c2)cc1 | 33.7 µM |
| CCOC(=O)Cc1csc(NC(=S)NC(=O)c2ccccc2)n1 | 20.9 µM |
| COc1ccc(C(=O)/C=C/C(=O)N(CC(=O)NCCC(C)C)Cc2cccs2)c(O)c1 | 16 µM |
| CC(=O)Nc1ccc(OS(=O)(=O)c2ccc(C)cc2C)cc1 | 21.6 µM |
| Cc1ccc(C(=O)c2cccc(N)c2)cc1C | 3.03 µM |

----------
target: Endothelial PAS domain-containing protein 1 (Homo sapiens); assay: HIF-2a and HIF-1a reporter inhibition panel, dose response, selectivity assay for HIF-2a inhibitor project, cell-based, luminescence (AID 651581); settings: HIF-2a PANC, mean of runs
Calls of active or inactive are those of the source. How the calls were made is not given here.
Possible outcomes: yes (active), no (inactive)

| Molecule | Label Value |
| --- | --- |
| CC(C)(C)c1ccc(/C=N/Nc2ccc(C(=O)O)cc2)cc1 | yes |
| O=C(O)c1ccc(N/N=C/c2ccc(C(F)(F)F)cc2)cc1 | no |
| O=Nc1c(O)ccc2cc(S(=O)(=O)O)ccc12 | no |
| O=C(O)c1cccc(C(=O)Nc2cccc(NC(=O)C3CCCO3)c2)c1 (stereo unspecified) | no |
| O=S(=O)(Nc1cccc2cccnc12)c1ccccc1 | no |
| CC(C)COc1ccc(C(=S)N2CCCC2)cc1 | yes |

----------
biological target: Endothelial PAS domain-containing protein 1 (Homo sapiens) (UniProt Q99814); experiment: HIF-2a and HIF-1a reporter inhibition panel, dose response, selectivity assay for HIF-2a inhibitor project, cell-based, luminescence (AID 651581); conditions: HIF-2a, mean of runs
Calls of active or inactive are those of the source. How the calls were made is not given here.
Possible outcomes: active, inactive

| Input Smiles | Label Value |
| --- | --- |
| NNC(=O)c1cccc(COc2ccc3c(c2)CCC3)c1 | inactive |
| Cc1cccc(NC(=S)NNc2ncc(C(F)(F)F)cc2Cl)c1 | active |
| COc1cccc(NC(=O)c2nc(S(C)(=O)=O)ncc2Cl)c1 | inactive |
| Cc1ccc(S(=O)(=O)Nc2cccc3cccnc23)c([N+](=O)[O-])c1 | active |
| Cc1nc(SCc2cccc(C(=O)O)c2)nc2c1CCCC2 | active |
| COC(=O)Cc1ccc(NC(=O)c2ccc(C(C)(C)C)cc2)cc1 | active |

----------
target: Endothelial PAS domain-containing protein 1 (Homo sapiens); experiment: HIF-2a and HIF-1a reporter inhibition panel, dose response, selectivity assay for HIF-2a inhibitor project, cell-based, luminescence (AID 651581); conditions: HIF-2a, run 1
pIC50: −log10 of the molar value.
# pIC50 values compiled below

| Compound | Censoring Sign | pIC50 |
| --- | --- | --- |
| Cc1ccc(-n2nc3ccc(N)cc3n2)c(C)c1 | = | 6.34 |
| COc1ccc(-c2cnc3c(NC=O)cc(-c4cccc(NS(C)(=O)=O)c4)cn23)cc1OC | = | 4.89 |
| C(=NNc1ccc2ccccc2n1)c1ccccn1 | = | 5.26 |
| FC(F)(F)c1cnc(NNC(=S)Nc2ccccc2)c(Cl)c1 | = | 5.07 |
| O=C(O)c1ccc2nc(-c3ccccc3)sc2c1 | > | 4.52 |
| Cc1ccc(Oc2ccc(OCC(=O)Nc3ccncc3)cc2)cc1 | = | 5.25 |
| COC(=O)Cc1ccc(NC(=O)c2ccc(C(C)(C)C)cc2)cc1 | = | 6.61 |
| CCNC(=O)NC(=O)COC(=O)CCCSc1nc2ccccc2s1 | = | 5.29 |
| CCN(CC)CCCC(C)n1c2nc(=O)[nH]c(=O)c-2nc2cc(Cl)ccc21 (configuration not stated) | = | 5.07 |
| Cc1cc(C(=O)Nc2cccc(C(=O)O)c2)oc1C | = | 5.17 |
| CC(C)COc1ccc(C(=S)N2CCCC2)cc1 | = | 5.36 |
| Cc1ccoc1C(=O)Nc1ccc(CC(=O)O)cc1 | = | 6.44 |

----------
target: Endothelial PAS domain-containing protein 1 (Homo sapiens); test: HIF-2a and HIF-1a reporter inhibition panel, dose response, selectivity assay for HIF-2a inhibitor project, cell-based, luminescence (AID 651581); settings: HIF-2a, run 2
# IC50 values compiled below

| Compound | Units Symbol | Censoring Sign | IC50 |
| --- | --- | --- | --- |
| Cc1c(CCC(=O)NCCC(=O)O)c(=O)oc2c(C)c3oc4c(c3cc12)CCCC4 | µM | = | 3.32 |
| O=C(O)c1cccc(C(=O)Nc2cccc(NC(=O)C3CCCO3)c2)c1 (stereo unspecified) | µM | = | 26.9 |
| Cc1nc2cc(-c3ccccc3)nn2c(C)c1CCC(=O)N1CCC2(CC1)OCCO2 | µM | = | 0.921 |
| NNC(=O)c1cccc(COc2ccc3c(c2)CCC3)c1 | µM | < | 30 |
| CCOC(=O)c1cccc(NC(=O)/C=C/c2ccc3c(c2)OCO3)c1 | µM | = | 14.7 |
| CCOC(=O)Cn1cc(/C=C/[N+](=O)[O-])c2ccccc21 | µM | = | 13.2 |

Ref: PubChem BioAssay AID651581
